Tested on: RPMI-8226 leukemia
protocol.notes: NCI-60 one-dose screen, 48 h
cond: 10 µM unless noted
About 83,000 compounds went through this panel and 20% of them were active in at least one assay; those are over-represented in the sample as a whole. The source made the active and inactive calls. How the source made its calls: active means growth percent below 10; inactive means the rest.
API: response.call in active, inactive

Input line: What did this assay record as the result for CCCCCCCCCCCCC[N+](C)(C)Cc1ccccc1 ?
Output line: active

Input line: Could you check what this test reported for CC[C@@H]1O[C@H](O[C@@H](c2cnc[nH]2)[C@H](NC(=O)c2nc([C@H](CC(N)=O)NC[C@@H](N)C(N)=O)nc(N)c2C)C(=O)N[C@H](C)[C@H](O)[C@H](C)C(=O)N[C@@H](C(=O)NCCc2nc(-c3nc(C(=O)NCCCCN=C(N)N)cs3)cs2)[C@@H](C)O)[C@H](O[C@@H]2O[C@H](CO)[C@H](O)[C@H](OC(N)=O)[C@@H]2O)[C@H](C)[C@@H]1C ?
Output line: inactive

Input line: Please let me know the test result on file for COc1ccc(C(=O)COc2cccc(/C=C3\CSc4ccccc4C3=O)c2)cc1 .
Output line: active

# input for lookup
Input line: Just curious, what result did C#Cc1cccc(NC(=O)c2ccccc2NC(=O)C=C)c1 get here?
Output line: inactive

====

Test system: SNB-75 CNS
protocol.notes: NCI-60 one-dose screen, 48 h
cond: 10 µM unless noted
Compounds without any hit were thinned out: in the full panel of roughly 83,000, 20% have a hit. Calls of active or inactive are those of the source. The calls were made as follows: active = growth percent below 10; inactive = the rest.
Respond only with the outcome that fits, drawn from 1 (yes) (active), 0 (no) (inactive)

Look over these answered cases.
Input line: Fill in: this test's call for Oc1cccc(-c2nc(N3CCOCC3)c3c4c(sc3n2)CCCC4)c1 is ___
Output line: 1 (yes)

Input line: Per the assay record, what outcome was assigned to NC(=NCCCOc1ccc(Cl)cc1)Nc1ccc(Cl)cc1 ?
Output line: 0 (no)

Input line: Identify the outcome logged in this assay for the molecule shown: O=C(/C=C/c1cc(CN2CCOCC2)c(O)c2ncccc12)c1cc(CN2CCOCC2)c(O)c2ncccc12
Output line: 0 (no)

Input line: Kindly provide the recorded test outcome for the following molecule: COc1cc(-c2ccc3c(c2)NC(=O)/C3=C\c2ccc[nH]2)ccc1O
Output line: 0 (no)

Input line: Could you please tell me the result logged for COc1ccc(CN2c3ccccc3Oc3ccccc32)cc1F in this assay?
Output line: 0 (no)

More entries:
Input line: Call for entry C/C1=C\CC[C@@]2(C)O[C@H]2[C@H]2OC(=O)C(CN3CCN(CC4C(=O)O[C@H]5[C@H]4CC/C(C)=C/CC[C@@]4(C)O[C@@H]54)CC3)[C@@H]2CC1 (stereo not given in full) :
Output line: 0 (no)

Input line: Hey, what did the test say about COc1ccc(NC(=O)c2ccc(/C=C/C(=O)c3ncc[nH]3)cc2)cc1 ?
Output line: 0 (no)

====

Test system: NCI-H226 lung
protocol.notes: NCI-60 one-dose screen, 48 h
cond: 10 µM unless noted
This is part of a sample that, as a whole, favours compounds with a hit. Of some 83,000 tested, about 20% had one in any assay. Calls of active or inactive are those of the source. Rule for the calls: active = growth percent below 10; inactive = the rest.
Choose the fitting class; nothing outside active, inactive is accepted.

Here's what some known entries look like.
Input line: Per the assay record, what outcome was assigned to O=S(=O)(Nc1ccc(Cl)c(F)c1)c1ccc(-c2cnc(C3CC3)o2)cc1 ?
Output line: inactive

Input line: Per the records of this test, what outcome belongs to Cc1nn(-c2cc(=O)[nH]c3ccccc23)c(N)c1C#N ?
Output line: inactive

Input line: Answer briefly: the call reported for O=c1cc(CSc2nnc(-c3ccc(F)cc3)o2)c2ccc3ccccc3c2o1 in this assay.
Output line: inactive

Input line: Which outcome did this test record for the compound CC[C@@H]1O[C@H](O[C@@H](c2cnc[nH]2)[C@H](NC(=O)c2nc([C@H](CC(N)=O)NC[C@@H](N)C(N)=O)nc(N)c2C)C(=O)N[C@H](C)[C@H](O)[C@H](C)C(=O)N[C@@H](C(=O)NCCc2nc(-c3nc(C(=O)NCCCCN=C(N)N)cs3)cs2)[C@@H](C)O)[C@H](O[C@@H]2O[C@H](CO)[C@H](O)[C@H](OC(N)=O)[C@@H]2O)[C@H](C)[C@@H]1C ?
Output line: inactive

Input line: Outcome logged for COc1ccc(SC2c3cc(OC)c(OC)cc3Oc3nc(N)c(C#N)c(N)c32)cc1 (stereo unspecified) in this assay:
Output line: active

Next:
Input line: Check the results log: what was the call for Cn1ncc2c(=O)nc3c(-c4ccccc4)n[nH]n3c21 ?
Output line: inactive
